Data credit: patent US20060088522A1

- target.of.assay: T1, human 5T4 antigen (human, UniProt Q13641 32-355, limits assumed)
- T1 construct: Isolated antigen as used in BIACORE and ELISA; also called 5T4 oncofetal antigen
- T1 sequence (looked up): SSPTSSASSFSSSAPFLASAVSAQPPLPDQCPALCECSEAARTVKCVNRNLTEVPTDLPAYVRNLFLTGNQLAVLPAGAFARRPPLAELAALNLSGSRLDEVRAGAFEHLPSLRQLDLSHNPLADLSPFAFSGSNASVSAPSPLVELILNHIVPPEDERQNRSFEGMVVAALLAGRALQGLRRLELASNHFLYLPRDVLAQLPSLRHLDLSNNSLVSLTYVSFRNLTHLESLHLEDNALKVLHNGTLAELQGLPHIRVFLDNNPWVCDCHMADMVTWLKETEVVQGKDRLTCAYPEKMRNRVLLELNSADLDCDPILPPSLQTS
- measurement.description: BIACORE, human 5T4 antigen immobilized on a CM5 chip, antibody 12.5 nM to 200 nM
observed.property: Kd (pM)
Numbers only, in pM.

// Kd lookup, key: Humanized H8 version 1 (hVH1/hVL1) (antibody, human IgG4 S228P, kappa, V domains shown) VH: QVQLVQSGAEVKKPGASVKVSCKASGYSFTGYYMHWVKQSPGQGLEWIGRINPNNGVTLYNQKFKDRVTMTRDTSISTAYMELSRLRSDDTAVYYCARSTMITNYVMDYWGQGTLVTVSS VL: DIVMTQSPDSLAVSLGERATINCKASQSVSNDVAWYQQKPGQSPKLLISYTSSRYAGVPDRFSGSGSGTDFTLTISSLQAEDVAVYFCQQDYNSPPTFGGGTKLEIKR 840
